- Test system: giant foxtail (Setaria faberii)
- test name: Test C preemergence
- Format: in vivo
- condition label: preemergence, Rate 62 g/ha, scale 0 to 100
Attribute: Plant response rating, Foxtail, Giant
# respond with the number and nothing more

{"compound": "CCC(CC)c1ccn(C2OCN(c3cccc(OC(F)F)c3)C2=O)n1 (centres unmarked)", "Plant response rating, Foxtail, Giant": 90}
{"compound": "CCCC(C)c1ccn(C2SCN(c3cccc(C(F)(F)F)c3)C2=O)n1 (centres unmarked)", "Plant response rating, Foxtail, Giant": 20}
{"compound": "CCC(CC)c1ccn(C2CCN(c3cccc(OC)c3)C2=O)n1 (centres unmarked)", "Plant response rating, Foxtail, Giant": 100}
{"compound": "CCCOc1cc(N2CCC(n3ccc(C(C)(C)C)n3)C2=O)ccc1C (centres unmarked)", "Plant response rating, Foxtail, Giant": 100}

Tell me the measured Plant response rating, Foxtail, Giant of CCC(CC)c1ccn(C2CCN(c3ccc(F)c(C(F)(F)F)c3)C2=O)n1 (centres unmarked) , please.
100
